# target: AP-2 complex subunit beta (Homo sapiens) (UniProt P63010)
# Sequence (P63010 whole entry, looked up, one chain of several): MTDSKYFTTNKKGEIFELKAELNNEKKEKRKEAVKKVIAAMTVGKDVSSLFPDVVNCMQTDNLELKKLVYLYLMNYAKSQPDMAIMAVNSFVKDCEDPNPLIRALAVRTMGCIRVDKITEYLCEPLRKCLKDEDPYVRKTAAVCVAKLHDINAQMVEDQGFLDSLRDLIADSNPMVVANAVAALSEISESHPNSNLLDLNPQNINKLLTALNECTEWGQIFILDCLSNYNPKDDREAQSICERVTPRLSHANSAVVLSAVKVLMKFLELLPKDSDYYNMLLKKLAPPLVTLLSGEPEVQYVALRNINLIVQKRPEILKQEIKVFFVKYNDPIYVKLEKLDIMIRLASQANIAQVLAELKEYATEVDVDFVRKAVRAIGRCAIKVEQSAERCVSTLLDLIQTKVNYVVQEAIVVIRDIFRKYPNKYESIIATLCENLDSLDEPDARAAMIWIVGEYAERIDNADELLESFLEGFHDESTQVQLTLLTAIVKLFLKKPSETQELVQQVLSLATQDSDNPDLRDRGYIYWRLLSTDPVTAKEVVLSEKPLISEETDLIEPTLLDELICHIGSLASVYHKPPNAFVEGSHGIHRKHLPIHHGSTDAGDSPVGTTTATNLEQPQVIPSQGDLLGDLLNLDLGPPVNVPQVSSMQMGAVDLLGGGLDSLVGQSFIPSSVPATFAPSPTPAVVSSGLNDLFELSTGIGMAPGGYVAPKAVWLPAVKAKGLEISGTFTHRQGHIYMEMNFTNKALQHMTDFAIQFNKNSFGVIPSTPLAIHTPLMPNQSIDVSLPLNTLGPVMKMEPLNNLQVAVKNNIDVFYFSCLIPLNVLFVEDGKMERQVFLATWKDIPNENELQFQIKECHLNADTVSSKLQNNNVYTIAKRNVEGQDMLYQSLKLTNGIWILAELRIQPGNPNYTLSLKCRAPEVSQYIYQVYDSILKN
# method: beta-arrestin/AP2 interaction blockers – biochemical, validation set, GST-AP2 beads, flow cytometry, pilot screen (AID 504541);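 note: AP2 carries R879A mutation and is captured from E. coli lysate; bead-bound FITC arrestin peptide fluorescence measuring arrestin peptide binding to AP2; 0% = DMSO wells and 100% = excess unlabeled arrestin peptide control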
# measurement context: FITC arrestin peptide, at 10 µM, stronger effect = higher value, AP2 beta2 appendage fragment, R879A mutant
Can you tell me inhibition for the items I'm about to list?
Answers are plain numbers, in %.

C[C@]12CCC(=O)C=C1[C@H](O)C[C@@H]1[C@@H]2[C@@H](O)C[C@@]2(C)[C@H]1CC[C@]2(O)C(=O)CO : -21.5
CCC(NC(C)C)C(O)c1ccc(O)c(O)c1 (configuration not stated) : -1.15
COC(=O)c1ccc(NC(=O)c2ccccc2SC)cc1 : 18.8
CCOCCCNCc1cn(-c2ccc(F)cc2F)nc1-c1ccccc1C : 14.5
O=C(/C=C/c1ccccc1)NCC1(c2ccccc2)CCOCC1 : 63.9
CCC(=O)Nc1ccc(C(=O)N2CCN(C(=O)c3ccco3)CC2)cc1 : 0.87

With those in mind, consider the next molecule.
## Input Give the observed inhibition of "NC(N)=N/N=C/c1c(Cl)cccc1Cl" for AP-2 complex subunit beta (Homo sapiens) (UniProt P63010).
## Output 5.82

###

# target: GTPase HRas (Homo sapiens)
# method: Ras wt fluorescent GTP loading blockade – biochemical, wildtype, multiplex bead flow cytometry, dose response (AID 1335)
# measurement context: bead-based flow cytometry, Bodipy-GTP binding to GST-Ras; at 100 µM (top of the series) unless noted
Class (required): determined from GTP binding, percent of control; valid ranges are lower range = under 70%, middle range = from 70% up to 80%, upper range = 80% and over

Please review the entries below; each comes with its answer.
COc1ccc(-c2cc(C(F)(F)F)c3c(n2)sc2c(O)cc(=O)[nH]c23)c(OC)c1 : middle range
Cc1ccc(-c2csc3nc4c5ccccc5c(NCCCN(C)C)nn4c(=O)c23)cc1 : upper range
COC(=O)c1cccc(Nc2cc(C)nc(-c3ccccc3O)n2)c1 : lower range
CCOc1ccccc1C(=O)Nc1cccc(-c2ccc3nncn3n2)c1 : middle range
O=c1c2ccc([N+](=O)[O-])cc2ncn1Cc1ccccc1C(F)(F)F : middle range

## Input Exercise: read the entry "Cc1ccc(C(=O)O)c(OCc2ccccc2C)c1" and state which class it falls under.
## Output upper range

## Input Which of the defined bands does the recorded GTP binding, percent of control of "Cc1ccccc1COc1c(C)cccc1C(=O)O" sit within?
## Output upper range

###

# method: rapamycin-like changes in RPL19A-GFP expression – cell-based, S. cerevisiae, multiplex flow cytometry, primary screen (AID 1862);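 note: lower values mimic rapamycin by blocking the RPL19A rise seen in DMSO cells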
# measurement context: S. cerevisiae RPL19A-GFP strain, flow cytometry fluorescence, 3 h; at 10 µM; stronger effect = lower value
Records with an inconclusive call do not appear.
measured endpoint: percent of DMSO control GFP (%)
Answers are plain numbers, in %.

Consider the reported percent of DMSO control GFP for these compounds:
CC1(C)CC(=O)c2c(nc3ccccc3c2N)C1 : 105
O=C(OCCNC(=O)c1ccc2ccccc2n1)c1ccc(F)cc1 : 103

## Input Recall and state the measured percent of DMSO control GFP for COc1cc2c3c(c1)C(C)CC(C)(C)N3C(=O)C2=O (stereo not drawn) .
## Output 92.4

###

Give measured double positive events for each item. Keep answers brief.
# method: reduced mouse 2C T cell binding to pMHC/ICAM-1 vesicles – MLPCN validation set, flow cytometry, LFA-1/ICAM-1 modulator project, pilot screen (AID 2523)
# measurement context: 2C mouse CD8+ T cells, at 7 µM, stronger effect = lower value; measured here: CD8+/vesicle+ event percentage
One number for each entry, in %.

# example entries with known answers
COc1ccc2[nH]c3c(c2c1)CCNC3C1CC=C(C)CC1 (centres undefined) : 69
CC(C)CCn1c(N2CCc3ccccc3C2)nc2c1c(=O)[nH]c(=O)n2C : 54.4
CC(C)[C@H](NC(=O)[C@@H]1CSCN1C(=O)OC(C)(C)C)C(=O)NCC1CCC(C(=O)O)CC1 (some centres undefined) : 64.5

## Input Provide double positive events value for the following compound: "FC(F)(F)c1ccc(-c2noc(CN3CCCN(C4CCCCC4)CC3)n2)cc1"
## Output 62.5

###

# method: reduced mouse 2C T cell binding to pMHC/ICAM-1 vesicles – MLPCN validation set, flow cytometry, LFA-1/ICAM-1 modulator project, pilot screen (AID 2523)
# measurement context: 2C mouse CD8+ T cells, at 7 µM, stronger effect = lower value; measured here: CD8+/vesicle+ event percentage
Please go through the items and note down their double positive events.
Numbers only, in %.

A selection of reference data follows.
COC(=O)CN1C(=S)N(c2ccc(F)cc2)C(=O)C1CC(=O)Nc1ccccc1 (stereo not drawn) : 57.4
COc1ccc(Cc2noc(CN(C)CCN3CCc4ccccc4C3)n2)cc1OC : 65.2
CC(C)CC(NC(=O)c1cccc(Cl)c1)C(=O)O (stereo not drawn) : 60.5
CCn1c(/C=C/c2ccccc2)nc2ccccc2c1=O : 59.1

Please look at the items below and tell me double positive events for each one, in order.
1. CCc1cc(=O)oc2cc(OCc3nn[nH]n3)ccc12
2. O=C(NC(=S)Nc1ccc(N2CCN(C(=O)c3ccccc3)CC2)cc1)c1cccs1
3. c1cnc(N2CCN(Cc3ccc4c(c3)OCO4)CC2)nc1
4. Cc1ccccc1-c1nn(-c2ccc(F)cc2F)cc1CNCCN(C)C
5. C[N+](C)(C)CCOP(=O)([O-])OC[C@H](O)CO
6. CC(=O)c1cccc2c(O)c(C3=Nc4ccccc4C3=O)[nH]c12
7. CCNC(=O)C(Cc1ccccc1)NC(=O)OCc1ccccc1 (stereo not drawn)
8. Cc1cccc(-c2ncc(CN3CCN(CC(C)C)C(CCO)C3)cn2)c1 (stereo not drawn)

## Output
1: 65.5; 2: 51.4; 3: 73.9; 4: 62; 5: 60.1; 6: 69.7; 7: 62.5; 8: 65.5

## Input Check the records and state double positive events for "COc1ccc(/C=C/C(=O)c2cc3cccc(OC)c3oc2=O)cc1"
## Output 57.4

###

Kindly supply the reported GFP response, % of DMSO values for the records listed here.
# method: yeast AGP1-GFP level changes, GLN3 branch – cell-based, multiplex flow cytometry, S. cerevisiae, primary screen (AID 1887);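 note: AGP1-GFP fusion strain of S. cerevisiae within a five-strain barcoded multiplex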
# measurement context: 3 h, at 10 µM, stronger effect = higher value
Results filed as inconclusive are left out. Active and inactive are the calls of the source.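 How the source made its calls: active means GFP signal above the screen-wide mean plus 3 SD, that is over about 124.5% of the solvent control; inconclusive means no reading because the compound's own fluorescence disturbed strain identification; inactive means the rest.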

Some compounds with known GFP response, % of DMSO results, for comparison:
Cc1cc(NS(=O)(=O)c2ccc(N)cc2)no1 : 113% (inactive)
O=C(NCc1ccc2c(c1)OCO2)c1ccc2c(c1)OCCO2 : 101% (inactive)
Cn1cc(C2N3CC4(C)CN2CC(C)(C3)C4=O)c2ccccc21 (stereo not given) : 104% (inactive)
OCCN(CCO)c1nc(N2CCCCC2)c2nc(N(CCO)CCO)nc(N3CCCCC3)c2n1 : 108% (inactive)
N=c1nc(N2CCCCC2)cc(N)n1O : 90.1% (inactive)
Cc1ccc2c(c1)C(C)(C)[C@]1(C)NC(=O)CCN21 : 105% (inactive)
CN1C(C(=O)Nc2ccccn2)=C(O)c2ccccc2S1(=O)=O : 97.6% (inactive)
CCOc1ccc(C(=O)NC(C)C2COc3ccccc3O2)cc1 (stereo not given) : 106% (inactive)

Give measured GFP response, % of DMSO for every item shown.
1. CCn1cc(CN2N=C(C)CC2c2ccccc2)c(C)n1 (stereo not given)
2. O=c1oc2c(CN3CCCCC3)c(O)ccc2c2c1CCCCC2
3. COc1ccc(C(=O)O)cc1F

## Output
["97.2% (inactive)", "107% (inactive)", "103% (inactive)"]

Provide GFP response, % of DMSO for all items below, preserving their order.
1. O=C1CN(O)C=C2N=c3ccccc3=C2N1c1ccc([N+](=O)[O-])cc1
2. CC(C)N(C(=O)Cc1ccccc1[N+](=O)[O-])C(C)C
3. Cc1nonc1CN(C)C(=O)c1ccc(OC2CCN(Cc3ccccn3)CC2)cc1
4. COc1ccccc1C(O)c1nccn1C (stereo not given)
5. CCCCOc1ccc(CC(=O)NO)cc1
6. CC1CCCC(C)N1NC(=O)c1ccc(Cl)c(S(N)(=O)=O)c1 (stereo not given)
7. c1cc(-c2ccncc2)ccn1

## Output
["107% (inactive)", "104% (inactive)", "102% (inactive)", "93.1% (inactive)", "75% (inactive)", "96.3% (inactive)", "105% (inactive)"]

Provide GFP response, % of DMSO values for the following items, in order.
1. O=C(O)c1ccccc1C(=O)OCCCCOC(=O)c1ccccc1C(=O)O
2. O=C(NC1CCCCC1)c1cc2nc(-c3ccco3)cc(C(F)(F)F)n2n1
3. COc1cc(C(=O)NCCCCCC(=O)O)cc(OC)c1OC
4. O=C(Nc1ccccc1C(=O)N1CCCCCC1)c1ccccc1Cl
5. CC(=O)c1cccc(NC(=O)N[C@@H](CC(C)C)C(=O)O)c1

## Output
1: 98.6% (inactive); 2: 88.2% (inactive); 3: 108% (inactive); 4: 102% (inactive); 5: 104% (inactive)

State the recorded GFP response, % of DMSO for every item in the following list.
1. O=C(NCC1CCCO1)c1ccc(OC2CCN(C(=O)C3CC3)CC2)cc1 (stereo not given)
2. S=C(NCc1ccccc1)NCc1cccc(CNC(=S)NCc2ccccc2)c1
3. C[C@H]1O[C@@H](O[C@H]2[C@@H](O)C[C@H](O[C@H]3[C@@H](O)C[C@H](O[C@H]4CC[C@@]5(C)[C@H](CC[C@@H]6[C@@H]5C[C@@H](O)[C@]5(C)[C@@H](C7=CC(=O)OC7)CC[C@]65O)C4)O[C@@H]3C)O[C@@H]2C)C[C@H](O)[C@@H]1O
4. CC(C)CC(NC(=O)CNC(=O)C1O[C@@H]2OC(C)(C)O[C@@H]2[C@H]2OC(C)(C)O[C@@H]12)C(=O)O (stereo not given in full)
5. COc1ccc(O)c(C(=O)/C=C/c2cc3ccccc3o2)c1
6. COC(=O)c1[nH]c2ccc(C)cc2c1NC(=O)CN1CCc2cc(OC)c(OC)cc2C1
7. COc1ccc(OC)c(S(=O)(=O)N2CCCc3ccccc32)c1
8. COc1cc2c(cc1OC)CN(Cc1ccc(C)s1)CC2

## Output
["99.4% (inactive)", "120% (inactive)", "93.7% (inactive)", "102% (inactive)", "95.2% (inactive)", "105% (inactive)", "105% (inactive)", "98% (inactive)"]
